Measured TGI accompanies every entry in the list below.
Test system: IGROV1 ovarian
Test: NCI tumour cell line growth inhibition, 48 h
Write the number in µM without appending the unit.

Example entries begin here.
INSERT INTO measurements (compound, number) VALUES
  ('Cc1n(Cc2ccc3ccccc3c2)c(Cl)c(Cl)[n+]1Cc1ccc2ccccc2c1', 2.81),
  ('COc1ccc(/C=C/C(=O)C(C)(C)Br)cc1', 5.76),
  ('O=c1[nH]c2cc(Cl)c(Cl)cc2n2cc3ccccc3c12', 31.2),
  ('CN(C)C(=O)SC1=C(c2c(Cl)cccc2Cl)C(=O)c2ccccc21', 11.4),
  ('NC(=O)C1=CC2C3C=CC2(O)C(=O)OC3O1 (stereo unspecified)', 11.7);

Record COc1cc2cc(C(=O)N3CC(CCl)c4c3cc([N+](C)(C)Cc3ccc([N+](=O)[O-])n3C)c3ccccc43)[nH]c2c(OC)c1OC (stereo unspecified) . Reported TGI: 4.23

get_value(item= CC(C)CCCC(C)[C@H]1CC[C@H]2N=C(Nc3ccccc3)CCC[C@]12C (stereo partly specified) , readout=TGI) returns 3.34

Field TGI (entry "COc1ccc(C(=O)c2ccc(-n3cc(/C=C/[N+](=O)[O-])c4ccccc43)cc2)cc1" ) reads 26.2

response.value for "O=C(Nc1cc(S(=O)(=O)c2ccc(Cl)cc2)ccc1Cl)c1cc(I)cc(I)c1O" (field: TGI) = 37.7

* * *

TGI values for the compounds below.
Tested on: IGROV1 ovarian
Experiment: NCI tumour cell line growth inhibition, 48 h

A selection of reference data follows.
INSERT INTO measurements (compound, measurement_target, result) VALUES
  ('CC(C)(C)c1cc(CCC(=O)Nc2ccc(Cl)cc2Cl)nc(N)n1', 'IGROV1 ovarian', '> 100 µM'),
  ('CC12CC(c3ccccc3O1)C(C(=O)Nc1cccc(F)c1)C(=O)N2 (stereo not given)', 'IGROV1 ovarian', '> 100 µM'),
  ('COc1ccc(-c2nc3c(c(=O)n2C(C)=O)C(c2ccc(Cl)cc2)c2sc4c(Cl)cccc4c2O3)cc1 (stereo not given)', 'IGROV1 ovarian', '3.12 µM');

Measured TGI of "CC(=O)O[C@H]1C(=O)N(c2cc3c4ccccc4ccc3c3ccccc23)[C@@H]1c1ccccc1" : 8.27 µM

GET /value?item= "CC(C)(CO)N=Cc1ccccc1[O-].CC(C)(CO)N=Cc1ccccc1[O-].[Co+2]" &field=TGI returns > 100 µM

Briefly, TGI measured for "COc1cc2cccc(N=Cc3c(Br)ccc(OC)c3OC(C)C)c2cc1OC" : > 100 µM

Lab book: TGI of CCOC(=O)C[C@@]12CCCNC1(C)CCc1ccccc12 (stereo not given in full) noted as > 100 µM

Recorded result, "CCN(CC)CCN(C)CCc1ccc(Br)cc1" , TGI: > 100 µM

TGI recorded for this compound, "NC(=O)c1cc(I)ccc1NC(=O)COc1ccccc1" , is > 100 µM

* * *

Test system: A498 renal
Assay: NCI tumour cell line growth inhibition, 48 h
Readings of TGI for the listed molecules
Give the quantity in µM, number only.

INSERT INTO assay_data (molecule, number) VALUES
  ('COC(=O)[C@H](Cc1ccccc1)NC(=O)c1csc([C@@H](C[C@H](C(C)C)N(C)C(=O)[C@@H](NC(=O)[C@H]2CCCN2C)C2CC2)OC(C)=O)n1', 15.2),
  ('CC1(C)C2CCC13C(=O)C1OC3(C2)C2C(=O)c3c(O)cccc3C(=O)C12 (centres undefined)', 3.49),
  ('Cc1c2cccc-2ccc2c1[nH]c1ccccc12', 28.5);

In the following, a different molecule is considered.
Summary for this molecule, "CN(C)C(=O)SC1=C(c2c(Cl)cccc2Cl)C(=O)c2ccccc21" : TGI is 31.7

* * *

Test system: SNB-78 CNS
Test: NCI tumour cell line growth inhibition, 48 h
This listing pairs compounds with measured TGI.

In the examples that follow, each entry is paired with its recorded TGI.
INSERT INTO measurements (compound, result) VALUES
  ('c1ccc(NC[Si]23OCCN(CCO2)CCO3)cc1', '> 100 µM'),
  ('CC(=O)Nc1ccc(C(=O)N2N=C(C)/C(=C/c3ccc(O)cc3)C2=O)cc1', '> 100 µM');

The value of TGI measured for the compound "Cc1cc2n([O-])cccc-2[n+](=O)c1" turned out to be > 100 µM

According to the records, this compound "C/C(=N/O)c1ccc2c(c1)C(=NO)c1cc(/C(C)=N/O)ccc1-2" displays TGI of 47.9 µM

Lab note: measured TGI of "CC[P+]1(CC)CCCC1" was > 100 µM

Just so you know, measured TGI for Cc1cc(=O)[nH]c(NNC(C#N)c2ccc([N+](=O)[O-])cc2)n1 (stereo not drawn) came out at > 100 µM

Lab book: TGI of "COC(=O)n1c(C[P+](c2ccccc2)(c2ccccc2)c2ccccc2)cc2ccccc21" noted as 17.9 µM

Looking up O=[N+]([O-])C1C2C=CC(C2)[C@H]1c1ccc(Cl)cc1Cl (stereo partly drawn) , I see its TGI listed as > 100 µM

Notebook: CCN(CC)CCCCC1CCN(CC(=O)N2c3ccccc3NC(=O)CC2C)CC1 (stereo not drawn) , TGI read as > 100 µM

Recorded result, C[C@@]12CCCC(=O)N1[C@@H](CO)C(c1ccccc1)O2 (stereo partly drawn) , TGI: > 100 µM

* * *

In this section, each of the molecules is paired with its reported TGI.
System: SF-268 CNS
Experiment: NCI tumour cell line growth inhibition, 48 h

Answered cases to consult:
INSERT INTO assay_data (molecule, quantity, result) VALUES
  ('c1ccc(NC[Si]23OCCN(CCO2)CCO3)cc1', 'TGI', '> 100 µM'),
  ('c1ccc([P+](c2ccccc2)(c2ccccc2)c2ccc([P+](c3ccccc3)(c3ccccc3)c3ccccc3)cc2)cc1', 'TGI', '> 100 µM'),
  ('Cc1ccc2c(c1)CC1(C2=O)[C@H](c2ccccc2)C2C(=O)c3ccc(C)cc3C2[C@H]1c1ccccc1 (some centres undefined)', 'TGI', '> 100 µM');

Note to self: TGI recorded for "COc1ccc(-c2cc(/C=C/C(=O)c3cc(OC)c(OC)c(OC)c3)[nH]n2)cc1OC" was 3.9 µM

// field: TGI; key: COc1ccc(/C=C2\CCC(CNc3ccc(Br)cc3)C2=O)cc1 (centres undefined) ; value = > 100 µM

// TGI lookup, molecule = "COc1cc(O)c(C(C)=O)c(O)c1" , result: > 100 µM

In plain terms, "Oc1[nH]c2ccccc2c1/C=c1/cc2c(c(-c3ccc(C(F)(F)F)cc3)n1)=Nc1ccccc1-2" has a documented TGI of 38.8 µM

For reference, reported TGI for O=C1CSC2(CC(/C=C/c3ccccc3Br)=NN2c2cccc(S(=O)(=O)O)c2)N1c1nc2ccccc2s1 (centres undefined) stands at > 100 µM

TGI for O=[N+]([O-])C1C2C=CC(C2)[C@H]1c1ccc(Cl)cc1Cl (some centres undefined) is > 100 µM

* * *

System: DMS 114 small cell lung
Experiment: NCI tumour cell line growth inhibition, 48 h
Attribute: TGI
Numeric only. Scale: µM

INSERT INTO assay_data (entry_smiles, measurement_target, number) VALUES
  ('CCOc1ccc(-c2oc(/C=N/NS(=O)(=O)c3ccc(C)cc3)c([N+](=O)[O-])c2-c2ccc(OCC)cc2)cc1', 'DMS 114 small cell lung', 12);

// TGI lookup, compound = "COc1ccc(CC2=NCCc3cc(OC)c(OC)cc32)cc1Br" , result: 48.3

* * *

Let's look at some compounds and their measured GI50.
Tested on: OVCAR-5 ovarian
Experiment: NCI tumour cell line growth inhibition, 48 h

Sample answers from the record:
INSERT INTO assay_data (compound, measurement_target, result) VALUES
  ('O=C(Nc1ccccc1O)c1ccc(CNC(=O)c2ccsc2Nc2ccnc(C(F)(F)F)c2)cc1', 'OVCAR-5 ovarian', '2050 nM'),
  ('c1cnc2[nH]cc(-c3csc(-c4cn(CCCN5CCCCC5)c5ccccc45)n3)c2c1', 'OVCAR-5 ovarian', '1630 nM'),
  ('COc1ccccc1/C=C\C(=O)c1ccccc1', 'OVCAR-5 ovarian', '17700 nM'),
  ('COc1ccc2[nH]c(-c3ccccc3)cc2c1', 'OVCAR-5 ovarian', '> 100000 nM'),
  ('C=CC1=CC(C)C[C@]1(O)C(=O)OC (stereo not given in full)', 'OVCAR-5 ovarian', '> 100000 nM');

Field GI50 (entry "Cc1ccc(/C=C2\CNC/C(=C\c3ccc(C)cc3)C2=O)cc1" ) reads 1890 nM

response.value for "Nc1ncnc2c1c(-c1ccc(Oc3ccccc3)cc1)nn2C[C@@H]1SSC[C@@H]1O" (field: GI50) = 2160 nM
